Where do these numbers come from? They come from the nanobody polyreactivity screen of Harvey et al. (2022).

# experiment_summary: yeast display, Sf9 membrane polyspecificity reagent, FACS + sequencing; frameworks hold sequencing errors
quantity_measured: polyreactivity (PSR sort gate)

Worked cases, polyreactivity (PSR sort gate) given:
Item: QVLQVESGGGVVQAGGSLRLSCSASGSTIGNKTMGWYRQAPGKEREFVAAITESGGGTYADSVKGRFTISRDNAKNTVYLQMNSLKPEDNAVYYSAAVWYIWPFAFYYWGEGTQVTVSS | polyreactivity (PSR sort gate): high polyreactivity

Item: QVQLVESGGGLVQAGGSLRLSCAASGRTFQVNAMGWYRQAPGKERELVAAISRRGGSTYYADSVKGRFTISRDNAKNTVYLQMNSLKPEDTAVYYCAATASTYYLWRYNYWGQGTQVSVSS | polyreactivity (PSR sort gate): high polyreactivity

Item: QVQLVESAGGLVQAGGSLRLSCAASGFTFYTYGMGWYRQAPGKERALVAAITSGVSTNYADSVKGRFTISRDNAKNTVYLQMNSLKPEDTAVYYCNKVGRPAYRWYDYWGQDTQVTVSS | polyreactivity (PSR sort gate): low polyreactivity

Item: QVQLVESGGGLVQAGGSLRLSCAASGSIFTWNGMGWYRQAPGKERELVAAISGSGGTTYADSVKGRFTISRDNAKNTVYLQMNSLKPEDTAVYYCARRVWVRDYPFGYARYGYWGQGTQVTVSS | polyreactivity (PSR sort gate): low polyreactivity

Item: QVQLVESGGGLVQAGGSLRLSCAASFYVYAMGWYRQAPGKERELVAAITYSGGGTYYADSVKGRFTISRDNAKNTVYLQMNSLKPEDTAVYYCAADDYFYDYDYWGQGTQVTVSS | polyreactivity (PSR sort gate): low polyreactivity

***
Item: QVQLVESGGGLVQAGGSLRLSCAASGSIFYGNTMGWYRQAPGKERELVAAITWSGDSTYYADSVKGRFTISRDIAKNTVYLQMISLKPEDTALYYCNADQTGVYYAGEGNHWGQGTQVSVSS | polyreactivity (PSR sort gate): low polyreactivity

Item: QVQLVESGGGLVQAGGSLRLSCAASGGIFRWYTMGWYRPAPGKERELVAAITGSGGRTFYADSVKGRFTISRDNAKNTVYLQMNSLKPEDTAVYYCAKPQAQVGGYWGYDYWGQGTQVTVSS | polyreactivity (PSR sort gate): high polyreactivity

Item: QVQLVESGGGLVQAGGSLRLSCAASGNTFYGYAMGWYRQAPGKDRELVASITLSGDSTYYADSVKGRFTISRDNAKNTVYLQMNSLKQEDTAVYYCAGVYTYPLGYYHYTYDYWGQGTQVTVSS | polyreactivity (PSR sort gate): low polyreactivity

Item: QVQLVESGGGLVQAGGSLRLSCAASGRIFYTNAMGWYRKAPGKERELVAGITCSGDSTYYADSVKGRFTISRDNAKNTVYLQMNSLKPEDTPVYYCAARWRYVLMDYWGQGNQVTVSS | polyreactivity (PSR sort gate): low polyreactivity

Item: QVQLVESGGGLVQAGGSLRLSCAASGRIFSYYAMGWYRQAPGKERELVAAITSGGSTYYADSVKGRFTISRDNAKNTVYLQMNSLKPEDTAVYYCNVVSDFRYYYWGQGTQVTVSS | polyreactivity (PSR sort gate): low polyreactivity
